# MEASUREMENT_NOTES: Pharmacokinetics of Compound I in rat after intravenous and oral administration (plasma and urine LC/MS/MS, noncompartmental analysis)
# Type: in vivo, male Sprague-Dawley rats
# CONDITION_NOTES: male, Sprague-Dawley, plasma, oral, 10 mg/kg, mean ± SD
ASSAY_ENDPOINT: Tmax (min)
Numbers only, in min.

Identify measured Tmax corresponding to O=C(NCc1cn(-c2ccc(-n3ccccc3=O)cc2)cn1)c1ccc(Cl)s1
15

====

# MEASUREMENT_NOTES: Pharmacokinetics of Compound I in rat after intravenous and oral administration (plasma and urine LC/MS/MS, noncompartmental analysis)
# Assay type: in vivo, male Sprague-Dawley rats
# CONDITION_NOTES: male, Sprague-Dawley, plasma, intravenous, 1 mg/kg, mean ± SD
ASSAY_ENDPOINT: AUC (ng·h/mL)
Give bare numbers, in ng·h/mL.

State its AUC: O=C(NCc1cn(-c2ccc(-n3ccccc3=O)cc2)cn1)c1ccc(Cl)s1 [Compound I]
5380

====

# MEASUREMENT_NOTES: Pharmacokinetics of Compound I in monkey after intravenous and oral administration (plasma LC/MS/MS, noncompartmental analysis)
# Assay type: in vivo, male rhesus monkeys
# CONDITION_NOTES: male, rhesus, rhesus monkey, plasma, oral, 5 mg/kg, mean ± SD
ASSAY_ENDPOINT: Tmax (h)
Numbers only, in h.

Return value of Tmax for input O=C(NCc1cn(-c2ccc(-n3ccccc3=O)cc2)cn1)c1ccc(Cl)s1 , no commentary.
2

====

# MEASUREMENT_NOTES: Pharmacokinetics of Compound I in rat after intravenous and oral administration (plasma and urine LC/MS/MS, noncompartmental analysis)
# Type: in vivo, male Sprague-Dawley rats
# CONDITION_NOTES: male, Sprague-Dawley, plasma, intravenous, 1 mg/kg, mean ± SD, read-out: T1/2 (terminal half-life) (converted)
ASSAY_ENDPOINT: half-life (h)
One number for each entry, in h.

Return half-life for the following compound: O=C(NCc1cn(-c2ccc(-n3ccccc3=O)cc2)cn1)c1ccc(Cl)s1 [Compound I]
2.86

Origin of the recorded values: patent US20110160250A1
